System: interferon regulatory factor (IRF) pathway in THP1-Dual™ cells
Experiment: THP1-Dual reporter gene assay (Agonist_THP1_EC50)
Type: cell-based
Settings: Homo sapiens, 20-24 hrs compound treatment, Lucia luciferase (IRF) readout
pEC50: −log10 of the molar value.
measured.quantity: pEC50

{"structure": "CCn1nc(C)c(O)c1-c1noc(-c2cc(C(N)=O)c3cc(C)ncn23)n1", "pEC50": 6.53}
{"structure": "COc1ccc(CCn2nc(C)c(O)c2-c2n[nH]c(-c3nc(C(N)=O)n4cc(C)ncc34)n2)cc1", "pEC50": 8.22}
{"structure": "COCc1cccc(CCn2nc(C)c(O)c2-c2n[nH]c(-n3nc(C(N)=O)c4cc(C)ncc43)n2)c1", "pEC50": 7.77}

A = CCn1nc(C)c(O)c1-c1nc(-n2nc(C(N)=O)c3cc(C)ncc32)co1
B = CCCn1nc(C)c(O)c1-c1nc(-n2nc(C(N)=O)c3cc(C)ncc32)c(CO)o1
C = Cc1nn(CCn2nccn2)c(-c2n[nH]c(-c3nc(C(N)=O)cc4c3cnn4C)n2)c1O
Req: Output the entries ranked by pEC50 from maximum down to minimum. Labels, ranked as asked.
Resp: B, C, A

A = CCCn1nc(C)c(O)c1-c1nc(-c2nc(C(N)=O)n3cc(C)ncc23)n(C)n1
B = COc1cccc(CCn2nc(C)c(O)c2-c2n[nH]c(-n3nc(C(N)=O)c4cc(C)ncc43)n2)c1
Req: For the two items A and B , which reports the higher pEC50 value? Please indicate the selected item by its label.
Resp: B
(B: 7.51, A: 6.65)

* * *

Assay: Single dose pharmacokinetics (SDPK) in female C57BL/6J mice
Assay type: in vivo
Conditions: female, C57BL/6J, mouse, plasma; prior art compounds (Table 4), 1 mg/kg, iv
Method: This is the single dose pharmacokinetics (PK) study in female C57/BL6 mice. The purpose of this study was to determine the pharmacokinetics of selected compounds following a single intravenous bolus injection in female C57BL/6J mice. […] The compound concentration in plasma samples was determined using LC-MS/MS method. The pharmacokinetic parameters were calculated by non-compartmental analysis.
measured.quantity: clearance (L/h/kg)
The reply should be a number in L/h/kg, with the unit left off.

Req: Return reported clearance; argument: CCn1nc(C)c(O)c1-c1nnc(-c2nc(C(N)=O)cc3c2cnn3C)[nH]1 [AC01, reference compound]
Resp: 10.2

* * *

Tested on: interferon regulatory factor (IRF) pathway in THP1-Dual™ cells
Test: THP1-Dual reporter gene assay (Agonist_THP1_EC50)
Type: cell-based
Details: Homo sapiens, 20-24 hrs compound treatment, Lucia luciferase (IRF) readout
measured.quantity: EC50 (µM)

For orientation, consider the following solved cases.
{"compound": "CCCn1nc(C)c(O)c1-c1nc(-c2nc(C(N)=O)n3cc(C)ncc23)co1 [Example 85]", "EC50, µM": 0.049}
{"compound": "Cc1nn(CCn2ccnc2)c(-c2n[nH]c(-c3nc(C(N)=O)cc4c3cnn4C)n2)c1O [Example 23]", "EC50, µM": 0.275}
{"compound": "Cc1cc2c(C(N)=O)nn(-c3nc(-c4c(O)c(C)nn4CCC(F)F)n[nH]3)c2cn1 [Example 66]", "EC50, µM": 0.027}
{"compound": "CCCn1nc(C)c(O)c1-c1n[nH]c(-c2cc(C(N)=O)n3cc(C)ncc23)n1 [Example 91]", "EC50, µM": 0.016}
{"compound": "Cc1nn(CCC(F)F)c(-c2n[nH]c(-c3nc(C(N)=O)cc4c3cnn4C)n2)c1O [Example 37]", "EC50, µM": 0.014}

a = Cc1cc2c(C(N)=O)nn(-c3coc(-c4c(O)c(C)nn4CCc4cccnc4)n3)c2cn1 [Example 74]
b = COCc1ccc(CCn2nc(C)c(O)c2-c2nc(-n3nc(C(N)=O)c4cc(C)ncc43)co2)cc1 [Example 89]
c = CCn1nc(C)c(O)c1-c1n[nH]c(-c2nc(C(N)=O)n3cc(Cl)ncc23)n1 [Example 18]
d = CCCn1nc(C)c(O)c1-c1n[nH]c(-n2nc(C(N)=O)c3cc(C)ncc32)n1 [Example 31]
e = CCCn1nc(C)c(O)c1-c1nc(-c2c(F)c(C(N)=O)n3cc(C)ncc23)co1 [Example 93]
Req: Could you please order the items by EC50, going from the lowest number to the highest? Please list the labels according to the requested order.
Resp: e, d, b, a, c
(e: 0.006 µM, d: 0.019 µM, b: 0.055 µM, a: 0.17 µM, c: 0.548 µM)

* * *

Below, each entry is listed alongside its reported EC50.
Tested on: human PBMC
Test: hPBMC cytokine release assay (Luminex, IFN-β)
Assay type: cell-based
Details: prior art compounds (Table 4), IFN-β, read-out: Agonist_hPBMC_IFN-β_EC50
Numbers only here, please. The scale is nM.

{"molecule": "CCn1nc(C)c(O)c1-c1nc(-c2nc(C(N)=O)cc3c2cnn3C)co1 [AE01, reference compound]", "units.symbol": "nM", "reading": 40}

Moving on to another molecule below.
Req: What value of EC50 has been recorded for this entry: CCn1nc(C)c(O)c1-c1nnc(-c2nc(C(N)=O)cc3c2cnn3C)[nH]1 [AC01, reference compound]
Resp: 28

* * *

Experiment: Single dose pharmacokinetics (SDPK) in female C57BL/6J mice
Assay type: in vivo
Settings: mouse; 1 mg/kg, iv, female C57BL/6J mice, plasma
measured.quantity: AUC(0-t) (ng·h/mL)

Solved cases (2 shown):
{"structure": "Cc1cc2c(C(N)=O)nn(-c3nc(-c4c(O)c(C)nn4CCc4ccccc4)n[nH]3)c2cn1", "measured.quantity": "AUC(0-t)", "reading": 151}
{"structure": "CCn1nc(C)c(O)c1-c1n[nH]c(-c2c(F)c(C(N)=O)n3cc(C)ncc23)n1", "measured.quantity": "AUC(0-t)", "reading": 122}

A = CCCn1nc(C)c(O)c1-c1n[nH]c(-c2c(F)c(C(N)=O)n3cc(C)ncc23)n1
B = CCCn1nc(C)c(O)c1-c1n[nH]c(-n2nc(C(N)=O)c3cc(C)ncc32)n1
Req: Of A and B , whose reported AUC(0-t) is the larger number? Please indicate the selected item by its label.
Resp: B

* * *

Assay: Single dose pharmacokinetics (SDPK) in female C57BL/6J mice
Type: in vivo
Conditions: mouse; 1 mg/kg, iv, female C57BL/6J mice, plasma
measured.quantity: clearance (mL/min/kg)

{"structure": "Cc1cc2c(C(N)=O)nn(-c3nc(-c4c(O)c(C)nn4CCc4ccccc4)n[nH]3)c2cn1", "measured.quantity": "clearance", "reading": 114}
{"structure": "CCCn1nc(C)c(O)c1-c1n[nH]c(-c2c(F)c(C(N)=O)n3cc(C)ncc23)n1", "measured.quantity": "clearance", "reading": 111}

P = CCn1nc(C)c(O)c1-c1n[nH]c(-c2c(F)c(C(N)=O)n3cc(C)ncc23)n1
Q = CCCn1nc(C)c(O)c1-c1n[nH]c(-n2nc(C(N)=O)c3cc(C)ncc32)n1
Req: Quick one: lower clearance, P or Q ? The response must carry the label of the picked entry.
Resp: Q

* * *

Tested on: interferon regulatory factor (IRF) pathway in THP1-Dual™ cells
Experiment: THP1-Dual reporter gene assay (Agonist_THP1_EC50)
Type: cell-based
Conditions: Homo sapiens, 20-24 hrs compound treatment, Lucia luciferase (IRF) readout
pEC50: −log10 of the molar value.
measured.quantity: pEC50

Please review the entries below; each comes with its answer.
{"compound": "Cc1cc2c(C(N)=O)nn(-c3nc(-c4c(O)c(C)nn4CCc4cccnc4)n[nH]3)c2cn1 [Example 47]", "measured.on": "interferon regulatory factor (IRF) pathway in THP1-Dual™ cells", "pEC50": 7.48}
{"compound": "CCn1nc(C)c(O)c1-c1n[nH]c(-c2c(F)c(C(N)=O)n3cc(C)ncc23)n1 [Example 4]", "measured.on": "interferon regulatory factor (IRF) pathway in THP1-Dual™ cells", "pEC50": 6.79}
{"compound": "CCn1nc(C)c(O)c1-c1n[nH]c(-c2nc(C(N)=O)n3cc(C)ncc23)n1 [Example 1]", "measured.on": "interferon regulatory factor (IRF) pathway in THP1-Dual™ cells", "pEC50": 6.69}
{"compound": "Cc1nn(CCc2ccccc2)c(-c2n[nH]c(-c3nc(C(N)=O)cc4c3cnn4C)n2)c1O [Example 82]", "measured.on": "interferon regulatory factor (IRF) pathway in THP1-Dual™ cells", "pEC50": 8.10}
{"compound": "Cc1cc2c(C(N)=O)nn(-c3nc(-c4c(O)c(C)nn4CCc4ccc(C#N)cc4)n[nH]3)c2cn1 [Example 61]", "measured.on": "interferon regulatory factor (IRF) pathway in THP1-Dual™ cells", "pEC50": 7.33}
{"compound": "Cc1cc2c(C(N)=O)nn(-c3coc(-c4c(O)c(C)nn4CCC(F)F)n3)c2cn1 [Example 67]", "measured.on": "interferon regulatory factor (IRF) pathway in THP1-Dual™ cells", "pEC50": 7.74}
{"compound": "CCCCn1nc(C)c(O)c1-c1n[nH]c(-n2nc(C(N)=O)c3cc(C)ncc32)n1 [Example 43]", "measured.on": "interferon regulatory factor (IRF) pathway in THP1-Dual™ cells", "pEC50": 7.82}
{"compound": "CC#CCCn1nc(C)c(O)c1-c1n[nH]c(-n2nc(C(N)=O)c3cc(C)ncc32)n1 [Example 51]", "measured.on": "interferon regulatory factor (IRF) pathway in THP1-Dual™ cells", "pEC50": 7.47}

a = Cc1cn2c(C(N)=O)c(F)c(-c3nc(-c4c(O)c(C)nn4CCc4cccnc4)n[nH]3)c2cn1 [Example 73]
b = Cc1cn2c(C(N)=O)nc(-c3nc(-c4c(O)c(C)nn4CCc4ccccc4)n[nH]3)c2cn1 [Example 53]
c = Cc1cc2c(C(N)=O)nn(-c3nc(-c4c(O)c(C)nn4CCc4ccccc4)nn3C)c2cn1 [Example 48]
Req: Arrange these compounds by their pEC50, starting with the largest number. Answer by writing out the labels in the requested order.
Resp: b, a, c
(b: 7.92, a: 7.41, c: 7.19)

I = COc1ccc(CCn2nc(C)c(O)c2-c2n[nH]c(-n3nc(C(N)=O)c4cc(C)ncc43)n2)cc1 [Example 50]
II = Cc1nn(CCn2ccnn2)c(-c2n[nH]c(-c3nc(C(N)=O)cc4c3cnn4C)n2)c1O [Example 36]
Req: // pick larger pEC50 from pair: I vs II Kindly state the label of the option you pick.
Resp: I

1 = CCn1nc(C)c(O)c1-c1n[nH]c(-c2nc(C(N)=O)n3cc(C)ccc23)n1 [Example 19]
2 = Cc1nn(CC=C(F)F)c(-c2n[nH]c(-c3nc(C(N)=O)cc4c3cnn4C)n2)c1O [Example 34]
3 = Cc1cc2c(C(N)=O)nn(-c3nc(-c4c(O)c(C)nn4CCc4cccc(C#N)c4)n[nH]3)c2cn1 [Example 60]
4 = COc1ccc(CCn2nc(C)c(O)c2-c2nc(-n3nc(C(N)=O)c4cc(C)ncc43)co2)cc1 [Example 78]
5 = COC(=O)c1ccc(CCn2nc(C)c(O)c2-c2n[nH]c(-n3nc(C(N)=O)c4cc(C)ncc43)n2)cc1 [Example 62]
Req: Hey, can you sort those compounds up there by pEC50, smallest first? Output spec: labels arranged per the requested ranking.
Resp: 1, 4, 5, 3, 2

P = CCn1nc(C)c(O)c1-c1n[nH]c(-c2cc(C(N)=O)n3cc(C)ncc23)n1 [Example 3]
Q = CCCn1nc(C)c(O)c1-c1nc(-n2nc(C(N)=O)c3cc(C)ncc32)n(C)n1 [Example 84]
R = COCC#CCCn1nc(C)c(O)c1-c1n[nH]c(-n2nc(C(N)=O)c3cc(C)ncc32)n1 [Example 81]
Req: Put the items in sequence by pEC50, from largest down. Response field: labels, in requested order.
Resp: Q, R, P
(Q: 7.47, R: 7.19, P: 6.22)
